# target.or.test.system: Carbonic anhydrase 2 (Homo sapiens)
# test.name: Inhibition of recombinant human CA2 pre-incubated for 15 mins by phenol red dye based stopped flow CO2 hydration assay
experimental.readout: log10(Ki) (log10 of the value in nM)
A difference of one corresponds to tenfold Ki; all values are log10 with Ki in nM.

Problem: Observed log10(Ki) on Carbonic anhydrase 2 (Homo sapiens) for "NS(=O)(=O)c1ccc(CCN(Cc2cccc3ccccc23)C(=O)c2ccc(-c3cssc3=S)cc2)cc1" , please.
Solution: 3.65

Problem: Observed log10(Ki) on Carbonic anhydrase 2 (Homo sapiens) for "CN(C)c1ccc(CN(CCc2ccc(S(N)(=O)=O)cc2)C(=O)c2ccc(-c3cssc3=S)cc2)cc1" , please.
Solution: 3.00

Problem: Observed log10(Ki) on Carbonic anhydrase 2 (Homo sapiens) for "N#CCCN(CCc1ccc(S(N)(=O)=O)cc1)C(=O)c1ccc(-c2cssc2=S)cc1" , please.
Solution: 1.78

Problem: Observed log10(Ki) on Carbonic anhydrase 2 (Homo sapiens) for "N#Cc1ccc(CN(CCc2ccc(S(N)(=O)=O)cc2)C(=O)c2ccc(-c3cssc3=S)cc2)cc1" , please.
Solution: 3.68

Problem: Observed log10(Ki) on Carbonic anhydrase 2 (Homo sapiens) for "COc1ccc(CN(CCc2ccc(S(N)(=O)=O)cc2)C(=O)c2ccc(-c3cssc3=S)cc2)cc1OC" , please.
Solution: 2.34

Problem: Observed log10(Ki) on Carbonic anhydrase 2 (Homo sapiens) for "NS(=O)(=O)c1ccc(CCN(Cc2ccc(Cl)cc2)C(=O)c2ccc(-c3cssc3=S)cc2)cc1" , please.
Solution: 3.47
